Kindly state inhibition for each of the entries shown.
biological target: Lysosomal acid glucosylceramidase (Homo sapiens) (UniProt P04062); experiment: Inhibition of human lysosomal acid beta-glucosidase at 1000 uM incubated for 30 mins by fluorescence based spectrophotometry relative to control
Sequence (P04062 whole entry): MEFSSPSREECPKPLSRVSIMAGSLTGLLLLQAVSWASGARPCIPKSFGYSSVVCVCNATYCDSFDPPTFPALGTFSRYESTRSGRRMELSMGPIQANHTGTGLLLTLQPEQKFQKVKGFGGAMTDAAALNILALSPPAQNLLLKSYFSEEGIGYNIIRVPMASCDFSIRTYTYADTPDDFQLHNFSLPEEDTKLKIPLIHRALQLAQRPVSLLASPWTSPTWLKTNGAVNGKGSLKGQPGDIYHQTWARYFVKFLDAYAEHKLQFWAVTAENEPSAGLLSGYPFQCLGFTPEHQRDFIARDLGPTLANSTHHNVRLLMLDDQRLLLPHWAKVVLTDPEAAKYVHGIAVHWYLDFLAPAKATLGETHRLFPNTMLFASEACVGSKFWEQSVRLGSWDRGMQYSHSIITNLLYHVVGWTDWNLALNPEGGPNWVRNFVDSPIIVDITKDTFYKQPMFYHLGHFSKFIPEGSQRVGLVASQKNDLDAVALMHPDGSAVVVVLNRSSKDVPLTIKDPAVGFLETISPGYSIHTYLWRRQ
# value in %; strip the unit string

Query: # inhibition lookup, item OC[C@@H]1[C@@H](O)[C@H](O)CN1CCc1ccccc1
Reply: 49

Query: Name the recorded inhibition for OC[C@H]1[C@H](O)[C@@H](O)CN1CCCCCCc1ccccc1 .
Reply: 27.1

Query: Please report the recorded inhibition for OC[C@@H]1[C@@H](O)[C@H](O)CN1CCCCCCc1ccccc1 .
Reply: 37.7

Query: Fill blank: measured inhibition of the molecule OC[C@@H]1NC[C@H](O)[C@H]1O is ____.
Reply: 16.1

Query: Which inhibition reading was recorded for the molecule OC[C@H]1[C@H](O)[C@@H](O)CN1CCc1ccccc1 ?
Reply: 41.6
